Biological target: T1, recombinant rat sclerostin (rat, UniProt Q99P67 24-213, limits assumed)
T1 sequence (looked up): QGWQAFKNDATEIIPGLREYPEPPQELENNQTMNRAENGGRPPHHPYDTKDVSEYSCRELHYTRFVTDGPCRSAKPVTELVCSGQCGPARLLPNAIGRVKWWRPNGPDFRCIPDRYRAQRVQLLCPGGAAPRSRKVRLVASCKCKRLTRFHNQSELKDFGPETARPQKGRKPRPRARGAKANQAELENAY
Experiment: SPR
# maps each entry to its Kd

binder	Kd / nM
AE10-6-AM6 (antibody, V domains shown, converted into IgG; also called rHC + LC S4 clone 119) VH: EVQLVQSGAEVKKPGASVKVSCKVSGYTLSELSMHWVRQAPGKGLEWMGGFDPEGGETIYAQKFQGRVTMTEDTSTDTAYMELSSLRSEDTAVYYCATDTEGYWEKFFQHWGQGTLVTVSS VL: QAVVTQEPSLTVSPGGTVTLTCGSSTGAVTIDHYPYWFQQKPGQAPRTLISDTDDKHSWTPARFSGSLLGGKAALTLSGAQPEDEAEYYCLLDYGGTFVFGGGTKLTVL	0.098
AE10-6-AM8 (antibody, V domains shown, converted into IgG) VH: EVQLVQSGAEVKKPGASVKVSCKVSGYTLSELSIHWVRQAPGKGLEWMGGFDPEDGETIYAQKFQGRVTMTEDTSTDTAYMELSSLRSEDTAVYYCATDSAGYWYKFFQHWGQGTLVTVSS VL: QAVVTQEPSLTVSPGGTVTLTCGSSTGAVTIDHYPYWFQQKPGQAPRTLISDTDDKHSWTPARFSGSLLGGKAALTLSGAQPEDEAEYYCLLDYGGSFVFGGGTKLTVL	0.034
AE10-6-AM7 (antibody, V domains shown, converted into IgG; also called rHC + LC S4 clone 131) VH: EVQLVQSGAEVKKPGASVKVSCKVSGYTLTELSMHWVRQAPGKGLEWMGGFDPEDGETIYAQKFQGRVTMTEDTSTDTAYMELSSLRSEDTAVYYCATDTVGYWEKFFQHWGQGTLVTVSS VL: QAVVTQEPSLTVSPGGTVTLTCGSSTGTVTIDHYPYWFQQKPGQAPRTLISDTDDKHSWTPARFSGSLLGGKAALTLSGAQPEDEAEYYCLLDYGGRFVFGGGTKLTVL	0.026
